Tested on: U2OS
Test: Here: values are normalized to the negative (DMSO; defined as 0% autophagy induction) and positive (250nM Torin1; mTOR inhibitor; defined as maximal inducer of autophagy = 100%) control compounds and represented as % of autophagy induction. […] The impact of autophagy induction on cells is complex and depends on the affected target. As such, the magnitude of a phenotype may not be equally mirrored in the %-value of autophagy induction and vice versa. The dynamics of the induction may indicate the mode of activation: e.g. activation via phosphorylation or a signaling cascade may occur fast, while activation via transcription factors may take considerably longer. […] Of note, treatment concentrations may be sub-optimal for specific compounds, leading to false negative annotations.
Type: functional, Homo sapiens
Conditions: Compound Concentration 0.5 uM, Timepoint 24 hours, Culturing Media DMEM, 1 % Penicillin/Streptomycin, 10% Fetal bovin serum Add-On: No, Screening Media Control DMEM, Screening Media Samples DMEM
measuredMetric: autophagy induction
Units required after the number.

1) COc1ccccc1CN[C@H]1C2CCN(CC2)[C@H]1C(c1ccccc1)c1ccccc1 | 2.83%

molecule Cc1csc(NC(=O)c2cc(F)cc(Oc3cncnc3)c2)n1 , autophagy induction observed: -2.592%

// autophagy induction value for O=C(O)CC/C=C\C[C@@H]1CO[C@H](c2ccccc2Cl)O[C@@H]1c1ccccc1O : -1.885%

// field: autophagy induction; key: CCOC(=O)c1cc(C#N)c(N2CCC(C(=O)NS(=O)(=O)Cc3ccccc3)CC2)nc1C ; value = -2.451%

Kindly note the recorded autophagy induction for COc1ccc(/C=C/CCCCOc2ccc(C(=O)c3cccc(C(=O)O)c3)cc2CCC(=O)O)cc1 , which is -2.76%

Form: molecule = COc1cccc(-c2c(C)n(Cc3c(F)cccc3C(F)(F)F)c(=O)n(C[C@H](NCCCC(=O)[O-])c3ccccc3)c2=O)c1F.[Na+] [ELAGOLIX SODIUM] ; autophagy induction = -3.1643%

Reported autophagy induction for C[C@@H](NCCc1ccc(O)cc1)[C@@H](O)c1ccc(O)cc1.Cl (relative stereo) was -1.218%

autophagy induction measured on CC1=C2C[C@H]3[C@@H](CC=C4C[C@@H](O)CC[C@@]43C)[C@@H]2CC[C@]12O[C@@H]1C[C@H](C)CN[C@H]1[C@H]2C = -6.065%

Quick note, autophagy induction for CN1CCCC(n2nc(Cc3ccc(Cl)cc3)c3ccccc3c2=O)CC1.Cl (centres undefined) [AZELASTINE HYDROCHLORIDE] landed at -3.995%

autophagy induction measured on COc1cc(-n2cnc3cc(-c4ccc(Cl)cc4)sc3c2=O)ccc1OCCN1CCCC1 = -3.025%

// C[C@H](Cc1cc2c(c(C(N)=O)c1)N(CCCO)CC2)NCCOc1ccccc1OCC(F)(F)F : autophagy induction value = -4.037%

For this molecule ( Cc1cc([C@@H](C)Nc2cccc(-c3cc(C)c(C(=O)N[C@@H](C)C(=O)O)c(C)c3)c2)ccc1Cl ), measured autophagy induction is -0.4353%

// sample COc1ccnc(N2CCC3(CCCN(Cc4c[nH]c5ccccc45)C3=O)CC2)n1 , its autophagy induction was 2.47%

response.value for COC1CCN(c2cccc(-c3cc(NC(C)=O)nc(-n4nc(C)cc4C)n3)n2)CC1 (field: autophagy induction) = -0.8923%

Recorded autophagy induction (molecule CCCSc1nc(N[C@@H]2C[C@H]2c2ccc(F)c(F)c2)c2nnn([C@@H]3C[C@H](OCCO)[C@@H](O)[C@H]3O)c2n1 ): -3.07%

Measured autophagy induction, COc1ccc(Br)cc1S(=O)(=O)NC(=O)/C=C/c1ccccc1Cc1ccc2ccccc2c1 : 0.9964%

The recorded autophagy induction for entry c1cc(CN2CCCNCCNCCCNCC2)ccc1CN1CCCNCCNCCCNCC1 equals -0.47%

Record summary for O=C(O)COc1cccc(CN(Cc2ccc(-n3cccn3)cc2)S(=O)(=O)c2cccnc2)c1 : reported autophagy induction = -2.792%

The molecule listed as O=C(O)C1CN(Cc2ccc(OCc3ccc(Cl)c(Cl)c3)cc2)C1 has a reported autophagy induction of -0.5625%

autophagy induction measured on FC(F)(F)c1cccc(-c2noc(-c3cc(-c4ccccc4)c(C(F)(F)F)s3)n2)c1 = -3.455%

# autophagy induction (molecule: Cc1csc2c(N[C@@H](C)CN3CCN(S(=O)(=O)c4ccc(Cl)c(Cl)c4)CC3)ncnc12 ) is -1.5%

GET /value?item= CC(C)Oc1ccccc1C(=O)Nc1ccccc1C(=O)Nc1cccc(S(=O)(=O)C(F)(F)F)c1 &field=autophagy induction returns -1.737%

Consider COc1ccc(S(=O)(=O)c2cc(OC)ccc2S(=O)(=O)c2ccc([C@H](C)NS(C)(=O)=O)cc2)cc1 . Its measured autophagy induction is 1.212%

// recorded autophagy induction for Cc1cc(NC(=O)Nc2ccc(N(C)C)cc2)c2cc(F)cc(F)c2n1 : -3.664%

Entry C/C(=N\NC(=O)[C@@H]1C(=O)NC[C@H]1c1ccccc1)c1cccc(Br)c1 , autophagy induction reported as 0.5164%
